Where do these numbers come from? They come from the supplement of paper PMC10065799.

- System: c-Src
- MEASUREMENT PROTOCOL: phosphorylation enrichment, bacterial display (enrichment ratio); higher = better substrate or ligand; peptides without Tyr show the background
If the reported phosphorylation enrichment equals or exceeds 0.4, assign Y. If not, assign N.

>  <RESIDUE SEQUENCE>
SLYPGYNFRYA [P2RX7_Y291]

>  <SYSTEM NAME>
c-Src

>  <CLASS>
N

$$$$
>  <RESIDUE SEQUENCE>
STASGYSDVTD [DTX2_Y425]

>  <SYSTEM NAME>
c-Src

>  <CLASS>
N

$$$$
>  <RESIDUE SEQUENCE>
DTNIAYWLHPR [POMT1_Y581]

>  <SYSTEM NAME>
c-Src

>  <CLASS>
Y

$$$$
>  <RESIDUE SEQUENCE>
CTTIHYNYMCD [TP53_Y234_N239D]

>  <SYSTEM NAME>
c-Src

>  <CLASS>
Y

$$$$
>  <RESIDUE SEQUENCE>
KVDKEYEVGVR [GHR_Y226_R229G]

>  <SYSTEM NAME>
c-Src

>  <CLASS>
Y

$$$$
>  <RESIDUE SEQUENCE>
TVDASYFGGRG [ANTXR2_Y380_YF]

>  <SYSTEM NAME>
c-Src

>  <CLASS>
Y

$$$$
>  <RESIDUE SEQUENCE>
THEVRYVSAGQ [SLCO4A1_Y77]

>  <SYSTEM NAME>
c-Src

>  <CLASS>
N

$$$$
>  <RESIDUE SEQUENCE>
VFAADYFKLLG [ROR2_Y645_YF]

>  <SYSTEM NAME>
c-Src

>  <CLASS>
Y

$$$$
>  <RESIDUE SEQUENCE>
EMFNPYYGLFE [NEDD4L_Y679]

>  <SYSTEM NAME>
c-Src

>  <CLASS>
Y

$$$$
>  <RESIDUE SEQUENCE>
IEKLPYIDKWF [CPS1_Y872_T871P]

>  <SYSTEM NAME>
c-Src;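 also: frequency after pTyr selection over input frequency; kinase dosed for 20-30% of maximal phosphorylation in three min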

>  <CLASS>
Y

$$$$
>  <RESIDUE SEQUENCE>
ADTETYLLEKS [MYH7_Y266_I263T]

>  <SYSTEM NAME>
c-Src;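 also: frequency after pTyr selection over input frequency; kinase dosed for 20-30% of maximal phosphorylation in three min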

>  <CLASS>
Y

$$$$
>  <RESIDUE SEQUENCE>
HRGHLYLAIEY [TEK_Y899_Y897H]

>  <SYSTEM NAME>
c-Src;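 also: frequency after pTyr selection over input frequency; kinase dosed for 20-30% of maximal phosphorylation in three min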

>  <CLASS>
N

$$$$
>  <RESIDUE SEQUENCE>
KRLAVYQAGAR [APOE_Y180]

>  <SYSTEM NAME>
c-Src;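 also: 11-residue human phosphosite peptides and single-mutation variants displayed on the E. coli surface, counted by deep sequencing, each peptide's frequency after selection divided by its frequency in the unselected input library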;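 also: frequency after pTyr selection over input frequency; kinase dosed for 20-30% of maximal phosphorylation in three min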

>  <CLASS>
N

$$$$
